- targetOrSystem: Human Progestin Receptor in T47-D Cells (Homo sapiens, UniProt P06401)
- Construct: The human breast carcinoma (T-47D) cell line was used to assess RBA for progestin receptor
- Sequence (P06401 whole entry): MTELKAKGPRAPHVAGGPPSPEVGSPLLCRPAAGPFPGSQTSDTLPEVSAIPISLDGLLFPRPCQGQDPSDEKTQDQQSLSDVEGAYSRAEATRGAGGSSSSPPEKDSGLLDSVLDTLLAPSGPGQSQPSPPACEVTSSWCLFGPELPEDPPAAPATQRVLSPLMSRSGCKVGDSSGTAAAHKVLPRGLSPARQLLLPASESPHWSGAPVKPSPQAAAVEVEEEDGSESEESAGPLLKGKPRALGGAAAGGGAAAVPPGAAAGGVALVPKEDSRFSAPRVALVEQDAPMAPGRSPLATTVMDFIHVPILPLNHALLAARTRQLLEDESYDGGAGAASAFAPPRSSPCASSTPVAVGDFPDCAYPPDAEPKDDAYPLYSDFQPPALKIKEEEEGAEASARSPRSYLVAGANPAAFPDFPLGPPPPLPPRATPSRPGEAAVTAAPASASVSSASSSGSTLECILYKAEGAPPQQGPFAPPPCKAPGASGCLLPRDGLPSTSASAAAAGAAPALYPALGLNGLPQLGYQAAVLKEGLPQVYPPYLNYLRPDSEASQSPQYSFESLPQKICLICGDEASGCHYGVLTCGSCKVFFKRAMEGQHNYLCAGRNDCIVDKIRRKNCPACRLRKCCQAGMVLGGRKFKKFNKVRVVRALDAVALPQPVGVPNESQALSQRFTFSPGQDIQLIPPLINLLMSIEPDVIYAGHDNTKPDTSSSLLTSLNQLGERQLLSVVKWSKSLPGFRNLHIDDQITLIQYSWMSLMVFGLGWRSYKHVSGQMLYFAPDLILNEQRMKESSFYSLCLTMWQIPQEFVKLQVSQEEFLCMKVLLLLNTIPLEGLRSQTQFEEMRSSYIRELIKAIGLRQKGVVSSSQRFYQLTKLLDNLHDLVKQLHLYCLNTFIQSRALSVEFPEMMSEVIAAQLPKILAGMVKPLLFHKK
- assayExplanation: Whole cell receptor binding (competition with 3H-R5020) in T-47D human breast carcinoma cells
- statedConditions: 50% displacement of 3H-R5020, T-47D cells, overnight incubation
assayReadout: IC50
Include the unit after the number when you answer.

Below are worked cases with known answers.
[
  {
    "compound": "CN(C)c1ccc([C@H]2C[C@@]3(C)[C@@H](CC[C@@]34CCCS4(=O)=O)[C@@H]3CCC4=CC(=O)CCC4=C32)cc1 [Compound 24]",
    "assayReadout": "IC50",
    "recordedMeasurement": "13 nM"
  },
  {
    "compound": "CSc1ccc([C@H]2C[C@@]3(C)[C@@H](CC[C@@]34CCCS4)[C@@H]3CCC4=CC(=O)CCC4=C32)cc1 [Compound 14]",
    "assayReadout": "IC50",
    "recordedMeasurement": "4.1 nM"
  },
  {
    "compound": "CN(C)c1ccc([C@H]2C[C@@]3(C)[C@@H](CC[C@@]34CCC[S+]4[O-])[C@@H]3CCC4=CC(=O)CCC4=C32)cc1 (single isomer, unassigned) [Compound 21a]",
    "assayReadout": "IC50",
    "recordedMeasurement": "3.1 nM"
  },
  {
    "compound": "CN(C)c1ccc([C@H]2C[C@@]3(C)[C@@H](CC[C@@]34CCC[S+]4[O-])[C@@H]3CCC4=CC(=O)CCC4=C32)cc1 (single isomer, unassigned) [Compound 21b]",
    "assayReadout": "IC50",
    "recordedMeasurement": "6.6 nM"
  }
]

Exercise: Form: Entry = CC(=O)c1ccc([C@H]2C[C@@]3(C)[C@@H](CC[C@@]34CCC[S+]4[O-])[C@@H]3CCC4=CC(=O)CCC4=C32)cc1 (single isomer, unassigned) [Compound 22b] | System = Human Progestin Receptor in T47-D Cells (Homo sapiens, UniProt P06401) | IC50 = ____
Key: 135 nM

Exercise: Same question, CN(C)c1ccc([C@H]2C[C@@]3(C)[C@@H](CC[C@@]34CCCS4)[C@@H]3CCC4=CC(=O)CCC4=C32)cc1 [Compound 12] this time
Key: 2.8 nM

Exercise: Same question, CC(=O)c1ccc([C@H]2C[C@@]3(C)[C@@H](CC[C@@]34CCC[S+]4[O-])[C@@H]3CCC4=CC(=O)CCC4=C32)cc1 (single isomer, unassigned) [Compound 22a] this time
Key: 183 nM

====

- targetOrSystem: Human Progestin Receptor in T47-D Cells (Homo sapiens, UniProt P06401)
- Construct: The human breast carcinoma (T-47D) cell line was used to assess RBA for progestin receptor; host or cells: T-47D human breast carcinoma cells
- assayExplanation: Whole cell receptor binding (competition with 3H-R5020) in T-47D human breast carcinoma cells
- statedConditions: RBA relative to internal standard progesterone, ratio of concentrations causing 50% displacement; compared in the same assay
- Description: The biological activity of the compounds of this invention was examined by means of whole cell receptor binding studies. Receptor Binding. The affinity of the compounds for hormone receptors was determined by standard procedures similar to those that have been described, inter alia, by Wagner et al., Proc. Natl. Acad. Sci., 93, 8739-8744 (1996) for COS-1 cells. The human breast carcinoma (T-47D) cell line was used to assess RBA for progestin receptor. […]
assayReadout: Relative Binding % Prog.
Include the unit after the number when you answer.

Below are worked cases with known answers.
[
  {
    "compound": "CN(C)c1ccc([C@H]2C[C@@]3(C)[C@@H](CC[C@@]34CCC[S+]4[O-])[C@@H]3CCC4=CC(=O)CCC4=C32)cc1 (single isomer, unassigned) [Compound 21b]",
    "targetOrSystem": "Human Progestin Receptor in T47-D Cells (Homo sapiens, UniProt P06401)",
    "Relative Binding % Prog.": "260%"
  },
  {
    "compound": "CC(=O)c1ccc([C@H]2C[C@@]3(C)[C@@H](CC[C@@]34CCC[S+]4[O-])[C@@H]3CCC4=CC(=O)CCC4=C32)cc1 (single isomer, unassigned) [Compound 22b]",
    "targetOrSystem": "Human Progestin Receptor in T47-D Cells (Homo sapiens, UniProt P06401)",
    "Relative Binding % Prog.": "25%"
  },
  {
    "compound": "CSc1ccc([C@H]2C[C@@]3(C)[C@@H](CC[C@@]34CCCS4)[C@@H]3CCC4=CC(=O)CCC4=C32)cc1",
    "targetOrSystem": "Human Progestin Receptor in T47-D Cells (Homo sapiens, UniProt P06401)",
    "Relative Binding % Prog.": "651%"
  },
  {
    "compound": "CN(C)c1ccc([C@H]2C[C@@]3(C)[C@@H](CC[C@@]34CCC[S+]4[O-])[C@@H]3CCC4=CC(=O)CCC4=C32)cc1 (single isomer, unassigned) [Compound 21a]",
    "targetOrSystem": "Human Progestin Receptor in T47-D Cells (Homo sapiens, UniProt P06401)",
    "Relative Binding % Prog.": "825%"
  },
  {
    "compound": "CC(=O)c1ccc([C@H]2C[C@@]3(C)[C@@H](CC[C@@]34CCC[S+]4[O-])[C@@H]3CCC4=CC(=O)CCC4=C32)cc1 (single isomer, unassigned) [Compound 22a]",
    "targetOrSystem": "Human Progestin Receptor in T47-D Cells (Homo sapiens, UniProt P06401)",
    "Relative Binding % Prog.": "19%"
  }
]

Exercise: Given the entry `CN(C)c1ccc([C@H]2C[C@@]3(C)[C@@H](CC[C@@]34CCCS4)[C@@H]3CCC4=CC(=O)CCC4=C32)cc1` , report its measured Relative Binding % Prog..
Key: 983%

Exercise: Same question, `CN(C)c1ccc([C@H]2C[C@@]3(C)[C@@H](CC[C@@]34CCCS4(=O)=O)[C@@H]3CCC4=CC(=O)CCC4=C32)cc1` this time
Key: 199%
